- targetOrTestSystem: T1, recombinant SARS-CoV-2 Spike RBD domain, Wuhan (SARS-CoV-2)
- T1 construct: also called RBD Wuhan
- experimentNotes: competition ELISA, blocking of RBD binding to ACE2 ectodomain
endpointName: Blocking %

binder: SPK002M C2 antibody (antibody, human IgG1, kappa, V domains shown) VH: EVQLVESGGGLIQPGGSLRLSCAASIITVTSNYMSWVRQAPGKGLEWVSVAYPGGSTFYADSVKGRFTISTDNSKNTLYLQMNSLRAEDTAVYYCARDLVVYGMDVWGQGTTVTVSS VL: EIVLTQSPGTLSLSPGERATLSCRASQSVSSSYLAWYQQKPGQAPRLLIYGASSRATGIPGRFSGSGSGTDFTLTISRLEPEDFAVYYCQQGVTFGGGTKVEIKR
valueObserved: 88%
//
binder: SPK002M C3 antibody (antibody, human IgG1, kappa, V domains shown) VH: EVQLVESGGGLIQPGGSLRLSCAASIITVTSNYMSWVRQAPGKGLEWVSVIYPGGSTFYADSVKGRFTISTDNSKNTLYLQMNSLRAEDTAVYYCARDLVVYGMDVWGQGTTVTVSS VL: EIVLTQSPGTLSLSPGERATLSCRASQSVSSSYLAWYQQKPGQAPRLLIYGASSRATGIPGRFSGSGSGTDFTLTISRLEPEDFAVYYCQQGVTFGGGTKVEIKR
valueObserved: 88%
//
binder: SPK002M A2 antibody (antibody, human IgG1, kappa, V domains shown) VH: EVQLVESGGGLIQPGGSLRLSCAASTITVTSNYMSWVRQAPGKGLEWVSVIYPGGSTFYADSVKGRFTISADNSKNTLYLQMNSLRAEDTAVYYCARDLVVYGMDVWGQGTTVTVSS VL: EIVLTQSPGTLSLSPGERATLSCRASQGVSSSYLAWYQQKPGQAPRLLIYGASSRATGIPGRFSGSGSGTDFTLTISRLEPEDFAVYYCQQGVTFGGGTKVEIKR
valueObserved: 92%
//
binder: SPK002M A5 antibody (antibody, human IgG1, kappa, V domains shown) VH: EVQLVESGGGLIQPGGSLRLSCAASVITVTSNYMSWVRQAPGKGLEWVSVIYPGGSTFYADSVKGRFTISADNSKNTLYLQMNSLRAEDTAVYYCARDLVVYGMDVWGQGTTVTVSS VL: EIVLTQSPGTLSLSPGERATLSCRASQSVSSSYLAWYQQKPGQAPRLLIYGASSRATGIPGRFSGSGSGTDFTLTISRLEPEDFAIYYCQQGVTFGGGTKVEIKR
valueObserved: 89%
//
binder: SPK002M A3 antibody (antibody, human IgG1, kappa, V domains shown) VH: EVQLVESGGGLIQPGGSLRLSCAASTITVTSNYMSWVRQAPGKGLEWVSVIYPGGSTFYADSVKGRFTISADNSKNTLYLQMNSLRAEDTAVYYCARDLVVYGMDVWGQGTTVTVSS VL: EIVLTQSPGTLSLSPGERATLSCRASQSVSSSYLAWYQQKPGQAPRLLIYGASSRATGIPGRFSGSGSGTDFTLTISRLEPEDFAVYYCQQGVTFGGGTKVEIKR
valueObserved: 94%
